# Target under test: APE1 WT (human, UniProt P27695 1-318)
# Sequence (P27695 whole entry): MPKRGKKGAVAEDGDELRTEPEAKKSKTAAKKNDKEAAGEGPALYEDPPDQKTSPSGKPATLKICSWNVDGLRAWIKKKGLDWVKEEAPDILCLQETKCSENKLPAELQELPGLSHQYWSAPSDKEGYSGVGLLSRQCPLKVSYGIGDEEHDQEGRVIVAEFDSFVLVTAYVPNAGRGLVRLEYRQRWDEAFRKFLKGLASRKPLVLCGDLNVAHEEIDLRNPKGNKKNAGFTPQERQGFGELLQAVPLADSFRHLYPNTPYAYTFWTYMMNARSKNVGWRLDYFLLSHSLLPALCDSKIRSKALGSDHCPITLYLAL
# Experiment notes: fluorescence polarization; 50 mM KCl, 1 mM MgCl2; FP: 50 mM Tris-HCl pH 7.5, 50 mM KCl, 1 mM MgCl2, 1 mM DTT, 0.1 mM EDTA, 10 nM oligo, 30 min RT, read at 25 C; Trp quenching: same buffer, 500 nM APE1, 20 C
# Condition label: protein: recombinant; label: 5'-6-FAM; parallel G4 (CD), prefolded in 50 mM KCl
Readout type: pKd
Here pKd is given on a logarithmic scale as minus log10 of the concentration in mol/L.

Note to self: pKd recorded for AGGGCGGTGTGGGAAGAGGGAAGAGGGGGAGG (structured_DNA) [G4-forming KRAS oligo (32R), 6-FAM] was 7.51
